Experiment: Volume of distribution at steady state in Sprague-Dawley rat at 1 mg/kg, iv and measured upto 24 hrs by LC-MS/MS analysis
Conditions: in vivo
# binarize Vd at 24 h: threshold 2 L/kg inclusive, high side Yes, low side No

Sample answers from the record:
| Compound | Assigned Label |
| --- | --- |
| C[C@@H]1Cc2c(ccc3[nH]ncc23)[C@@H](c2ccc(N3CCC4(CCN(C(=O)CN5Cc6cc7c(cc6C5)C(=O)N(C5CCC(=O)NC5=O)C7=O)CC4)CC3)cn2)N1CC(F)(F)F (some centres not stated) | Yes |
| O=C1CCC(N2C(=O)c3cc4c(cc3C2=O)CN(CC(=O)N2CCC3(CC2)CCN(c2ccc([C@@H]5c6ccc(O)cc6CC[C@@H]5c5ccccc5)cc2)CC3)C4)C(=O)N1 (some centres not stated) | No |
| O=C1CCC(N2C(=O)c3cc4c(cc3C2=O)CN(CC2CCN(CC3CCN(c5ccc([C@@H]6c7ccc(O)cc7CC[C@@H]6c6ccccc6)cc5)CC3)CC2)C4)C(=O)N1 (some centres not stated) | Yes |
| O=C1CCC(N2C(=O)c3cc4c(cc3C2=O)CN(C2CCN(CC3CCN(c5ccc([C@@H]6c7ccc(O)cc7CC[C@@H]6c6ccccc6)cc5)CC3)CC2)C4)C(=O)N1 (some centres not stated) | Yes |
| C[C@@H]1Cc2c(ccc3[nH]ncc23)[C@@H](c2c(F)cc(N3CCC4(CCN(C(=O)CN5Cc6cc7c(cc6C5)C(=O)N(C5CCC(=O)NC5=O)C7=O)CC4)CC3)cc2F)N1CC(F)F (some centres not stated) | No |

Read the next record carefully.
Could you tell me if the measured Vd at 24 h of CN1Cc2cc3c(cc2C1)C(=O)N(C1CCC(=O)NC1=O)C3=O (configuration not stated) reaches 2 L/kg or more? Yes
